Numbers sourced from patent US10703764B2.

# test target: BRD4 BD1 (Homo sapiens)
# method: AlphaScreen binding assay, BRD4 Bromodomain 1
endpoint name: IC50

compound_structure=CC(=O)N1c2ccc(-c3cnn(CC(=O)N4CCCCC4)c3)cc2N(C(=O)OC(C)C)C[C@@H]1C data_value="100 to 1000 nM"

Qu. For the compound "CC(=O)N1c2ccc(-c3ccc4nn(C)cc4c3)cc2N(C(=O)c2ccco2)C[C@@H]1C" , report IC50.
Ans. 1000 to 10000 nM

Qu. For the compound "CC(=O)N1c2ccc(-c3cccc(S(=O)(=O)N(C)C)c3)cc2N(C(=O)OC2CCCCC2)C[C@@H]1C" , report IC50.
Ans. 100 to 1000 nM

Qu. For the compound "C[C@H]1CN(C(=O)c2ccco2)c2cc(-c3ccc(S(C)(=O)=O)cc3)ccc2N1C(=O)c1ccno1" , report IC50.
Ans. > 10000 nM
